Provenance of the data: ChEMBL document CHEMBL2069182

Target: Probable G-protein coupled receptor 142 (Homo sapiens, UniProt Q7Z601)
Sequence (Q7Z601 whole entry): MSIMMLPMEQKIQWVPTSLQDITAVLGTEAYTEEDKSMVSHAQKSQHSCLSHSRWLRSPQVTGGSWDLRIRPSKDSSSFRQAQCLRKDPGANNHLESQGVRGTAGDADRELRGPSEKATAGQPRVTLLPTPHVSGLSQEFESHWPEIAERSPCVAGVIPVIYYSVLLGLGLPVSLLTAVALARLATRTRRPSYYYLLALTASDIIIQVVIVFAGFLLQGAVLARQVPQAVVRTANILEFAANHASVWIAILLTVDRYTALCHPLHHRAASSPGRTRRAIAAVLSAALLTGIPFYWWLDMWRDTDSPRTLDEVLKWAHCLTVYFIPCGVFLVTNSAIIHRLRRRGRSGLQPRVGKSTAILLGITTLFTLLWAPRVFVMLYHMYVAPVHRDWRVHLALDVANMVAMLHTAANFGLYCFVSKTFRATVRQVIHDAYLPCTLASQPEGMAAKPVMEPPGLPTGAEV
Test: Agonist activity at human GPR142 expressed in HEK293 cells assessed as inositol phosphate accumulation using [3H]-inositol after 1 hr by scintillation counting
Format: functional, cell-based
# class assignment by measured EC50: low band = under 200 nM, middle band = from 200 nM up to 800 nM, high band = 800 nM and over

>>> print(df.to_string())
                                smilesstring  classification
 0  Cc1cc(-c2cccc(NC(=O)[C@H](Cc3ccccc3)NCc3cscn3)c2)ccn1        low band
 1  N[C@@H](Cc1ccc(F)cc1)C(=O)Nc1cc(-c2ccncc2)c[nH]c1=O       high band
 2  Cn1cc(-c2cccc(NC(=O)[C@H](Cc3ccccc3)NCc3cscn3)c2)cn1        low band
 3  O=C(Nc1nccc(-c2ccncc2)n1)[C@H](Cc1ccccc1)NCc1cscn1     middle band
 4  O=C(Nc1cc(-c2ccncc2)c[nH]c1=O)[C@H](Cc1ccccc1)NCC1CC1     middle band
 5  N[C@@H](CC1CCCCC1)C(=O)Nc1cc(-c2ccncc2)c[nH]c1=O       high band
 6  O=C(Nc1cccc(-c2ccncc2)c1)[C@H](Cc1ccccc1)NCc1cscn1        low band
 7  COc1ccc(NC(=O)[C@H](Cc2ccccc2)NCc2cscn2)cc1-c1ccncc1     middle band
 8  N[C@H](C(=O)Nc1cc(-c2ccncc2)c[nH]c1=O)c1ccccc1       high band
 9  CC(=O)N[C@@H](Cc1ccccc1)C(=O)Nc1cc(-c2ccncc2)c[nH]c1=O       high band
10  O=C(O)c1cc(NC(=O)[C@H](Cc2ccccc2)NCc2cscn2)cc(-c2ccncc2)c1        low band
11  N[C@@H](Cc1ccccc1)C(=O)Nc1cc(-c2ccncc2)c[nH]c1=O       high band
12  O=C(Nc1cccc(-c2ccccc2)c1)[C@H](Cc1ccccc1)NCc1cscn1     middle band
13  O=C(Nc1cccc(-c2cn[nH]c2)c1)[C@H](Cc1ccccc1)NCc1cscn1        low band
14  COc1cc(NC(=O)[C@H](Cc2ccccc2)NCc2cscn2)cc(-c2ccncc2)c1        low band
15  Cc1cc(-c2c[nH]c(=O)c(NC(=O)[C@H](Cc3ccccc3)NCc3cscn3)c2)ccn1        low band
16  O=C(Nc1cc(-c2ccncc2)c[nH]c1=O)[C@H](Cc1ccccc1)NCc1ccccc1       high band
17  COc1ccc(C[C@H](N)C(=O)Nc2cc(-c3ccncc3)c[nH]c2=O)cc1       high band
18  N#Cc1ccc(C[C@H](N)C(=O)Nc2cc(-c3ccncc3)c[nH]c2=O)cc1       high band

---

Test: Volume of distribution at steady state in rat at 0.5 mg/kg, iv
Assay type: ADME, organism-based
Design: dose 0.5 mg/kg, route intravenous
Details: in vivo, read-out: Vdss
The following compounds are shown together with reported Vd values.
measuredQuantity: Vd (L/kg)

>>> df
                               smilesstring  observedvalue
0  Cc1cc(-c2c[nH]c(=O)c(NC(=O)[C@H](Cc3ccccc3)NCc3cscn3)c2)ccn1           0.75
1  O=C(O)c1cc(NC(=O)[C@H](Cc2ccccc2)NCc2cscn2)cc(-c2ccncc2)c1            0.5
